Hello, the source for this data is the RNAGym collection of RNA variant scans (doi:10.7554/elife.90254), in case you need it.

Measured self-cleavage accompanies every entry in the list below.
B1: LINE1-full (parent)
chain: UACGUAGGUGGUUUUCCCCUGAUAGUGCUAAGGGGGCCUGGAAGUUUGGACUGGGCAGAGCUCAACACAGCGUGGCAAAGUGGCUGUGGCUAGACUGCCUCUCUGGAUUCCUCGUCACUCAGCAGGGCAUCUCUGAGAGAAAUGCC

# Variants of: B1
# test.name: self-cleavage, relative activity (ratio to wild type); higher = more cleavage; in vitro, sequencing; the parent is a self-cleaving ribozyme

variant.designation	self-cleavage
C51U U130C	1.4
U12C C68U	0.35
U15C C56A	0.04
G41U A65G	0.03
A121G A142G	1.48
G35A A42G	1.17
C63A U87C	0.06
A64U A141C	0.46
U20C U73C	1.62
U12A U13C	1.58
U52C C95G	0.09
U12A U26C	1.22
